Would you mind telling me the reported PPB of each entry?
# Tested on: Plasma
# experimental details: Protein binding in rat plasma
# Type: ADME, cell-free

- molecule: "O=C(Nc1cc(F)cc(F)c1)N1CCC2(CC1)CN(c1ccc(F)c(Cl)c1)C2c1ccccn1 (stereo in doubt; 38a)"
  system tested: "Plasma"
  PPB: "99.9%"

# return PPB for each item in the list
1. N#Cc1cccc(NC(=O)N2CCC3(CC2)C(=O)N(c2cccc(Cl)c2)C3c2ccccn2)c1 (stereo in doubt; 43a)
2. O=C(Nc1ccc(F)c(F)c1)N1CCC2(CC1)C(=O)N(c1cccc(Cl)c1)C2c1ccccn1 (stereo in doubt; 42a)
3. O=C(Nc1ccc(F)c(F)c1)N1CCC2(CC1)C(=O)N(c1cccc(Cl)c1)C2c1ccccn1 (stereo in doubt; 42b)
4. O=C(Nc1cc(F)cc(F)c1)N1CCC2(CC1)C(=O)N(c1cccc(Cl)c1)C2c1ccccn1 (stereo in doubt; 44a)

OUT:
1. 99.2%
2. 98.8%
3. 99.9%
4. 98.9%
